# measurementTarget: human Epidermal Growth Factor Receptor (huEGFR) over-expressed in mcl-1-/- mouse embryonic fibroblasts (human, UniProt P00533 25-1210)
# assay: cell-based or functional assay
# yes (1) = huEGFR^+ mcl-1^-/- MEF EC50 below 9 nM (exclusive); no (0) = huEGFR^+ mcl-1^-/- MEF EC50 at/above 9 nM

Query: Given AbK-AAD (antibody, V domains shown, synthon AAD on reduced interchain Cys) VH: EVQLQESGPGLVKPSQTLSLTCTVSGYSISRDFAWNWIRQPPGKGLEWMGYISYNGNTRYQPSLKSRITISRDTSKNQFFLKLNSVTAADTATYYCVTASRGFPWWGQGTLVTVSS VL: DIQMTQSPSSMSVSVGDRVTITCHSSQDITYNVGWLQQKPGKSFKGLIYHGSNLDHGVPSRFSGSGSGTDYTLTISSLQPEDFATYYCVQYDDFPWTFGGGTKLEIKR , is recorded huEGFR^+ mcl-1^-/- MEF EC50 strictly lower than 9 nM?
Reply: yes (1)

Query: For AbK-ZT (antibody, V domains shown, synthon ZT on reduced interchain Cys) VH: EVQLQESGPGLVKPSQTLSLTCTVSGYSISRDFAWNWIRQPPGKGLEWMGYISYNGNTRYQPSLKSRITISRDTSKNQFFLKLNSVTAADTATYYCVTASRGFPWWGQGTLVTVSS VL: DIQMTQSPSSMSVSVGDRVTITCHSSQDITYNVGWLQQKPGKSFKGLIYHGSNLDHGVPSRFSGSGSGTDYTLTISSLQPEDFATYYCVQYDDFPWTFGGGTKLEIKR , is the recorded huEGFR^+ mcl-1^-/- MEF EC50 below the cut-off of 9 nM?
Reply: yes (1)

Query: Strictly below 9 nM: is that where huEGFR^+ mcl-1^-/- MEF EC50 of AbG-SE (antibody, V domains shown, synthon SE on reduced interchain Cys) VH: EVQLQESGPGLVKPSQTLSLTCTVSGYSISNDFAWNWIRQLPGKGLEWMGYISYKGNTRYQPSLKSRITISRDTSKNQFFLKLNSVTAADTATYYCVTASRGLPYWGQGTLVTVSS VL: DIQMTQSPSSMSVSVGDRVTITCHSSQDITYNIGWLQQKPGKSFKGLIYHGANLDDGVPSRFSGSGSGTDYTLTISSLQPEDFATYYCVQYDEFPWTFGGGTKLEIKR sits?
Reply: no (0)

Let us examine a further case.
Query: Lab note: huEGFR^+ mcl-1^-/- MEF EC50 threshold 9 nM. Does this binder come in strictly under it? AbA-AAA (antibody, V domains shown, synthon AAA on reduced interchain Cys) VH: EVQLQESGPGLVKPSQTLSLTCTVSGYSISRDFAWNWIRQPPGKGLEWMGYISYNGNTRYQPSLKSRITISRDTSKNQFFLKLNSVTAADTATYYCVTASRGFPYWGQGTLVTVSS VL: DIQMTQSPSSMSVSVGDRVTITCHSSQDINSNIGWLQQKPGKSFKGLIYHGTNLDDGVPSRFSGSGSGTDYTLTISSLQPEDFATYYCVQYAQFPWTFGGGTKLEIKR
Reply: no (0)
